system: Saccharomyces cerevisiae; experiment: protein stability index of tFT-peptide fusion (C-terminal peptide) (PSI (0-1 scale)); higher = more stable (slower turnover); settings: genetic background: wild type; temperature: 30 C;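 also: PSI is a weighted mean of sequencing reads over stability bins, variants kept only with over 10 reads, mCherry proximal and sfGFP distal, peptide attached via GGGS linker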
Entry flag: YES if protein stability index reaches 0.7; NO if it does not.

Solved cases below.
PRPPPSQATLSP: NO
RRRGTYTYSLLL: YES
FPPFPPLVPSPP: YES

**Query** Please indicate if the recorded protein stability index for NKKQTKKKRKNK meets or exceeds 0.7.
**Result** YES

**Query** Determine whether measured protein stability index meets or exceeds 0.7 for VGVVLWWVVLMV
**Result** NO

**Query** Could you verify whether the entry FGRAVWSRFCIV shows protein stability index of no less than 0.7?
**Result** NO
